- Assay overview: clinical
- Test context: human, in vivo, intravenous, 195 mg
Endpoint label: Vd (L)

• Nc1ccn([C@@H]2O[C@H](CO)[C@@H](O)[C@@H]2O)c(=O)n1 [Cytarabine, 1-β-D-arabinofuranosylcytosine] = 5.12
• COc1cccc2c1C(=O)c1c(O)c3c(c(O)c1C2=O)C[C@@](O)(C(C)=O)C[C@@H]3O[C@H]1C[C@H](N)[C@H](O)[C@H](C)O1 [Daunorubicin] = 4.34

====

- Tested on: HL-60 cells
- Assay overview: CellTiter-Glo cell viability, 72 hours
- Format: cell-based
- Test context: Homo sapiens, HL-60, read-out: IC50 values
- Experimental: AML cell lines used were: HL-60 (ATCC), SKM-1 (Sekisui XenoTech) and KG-1 (ATCC). Acute Lymphoid Leukemia (ALL) cell lines used were: CCRF-CEM (ATCC), MOLT-3 (ATCC), and Jurkat E6-1 (ATCC). […] CPX-351 and cytarabine were each dosed in a titration starting at 50 μM (for CPX-351, this was measured by its cytarabine content), with 8 additional serial dilutions of 5× each and a final group with no treatment. […]
Endpoint label: pIC50
The value called pIC50 is obtained by taking minus log10 of the concentration in mol/L.

In: I'd like to know its pIC50. The molecule in question is Nc1ncn([C@H]2C[C@H](O)[C@@H](CO)O2)c(=O)n1
Out: 6.09
